- subject of test: T1, cynomolgus Gal10-His (WGS isoform) (cynomolgus)
- T1 construct: also called cynomolgus antigen
- test description: SPR Biacore 3000, hFab on captured cynomolgus Gal10-His (WGS); column head prints (M), the text gives nM
pKd: −log10 of the molar value.
Label scheme for pKd: lower than 7 is false (0), 7 and above is true (1).

Threshold query (pKd >= 7) on g24F02 (human Fab) (Fab, V domains shown, Human Fab backbone (human CH1, human lambda CL); also called germlined 24F02) VH: EVQLLESGGGLVQPGGSLRLSCAASGFTFSSYAMSWVRQAPGKGLEWVSAINNGGGSTSYADSVKGRFTISRDNSKNTLYLQMNSLRAEDTAVYYCAKGLRVGVLGFDYWGQGTLVTVSS VL: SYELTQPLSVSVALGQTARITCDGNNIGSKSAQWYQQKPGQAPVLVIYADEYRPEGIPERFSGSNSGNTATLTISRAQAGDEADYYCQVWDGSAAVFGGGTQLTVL
true (1)

Threshold query (pKd >= 7) on g23H09 (Fab) (Fab, V domains shown, same VH/VL) VH: EVQLLESGGGLVQPGGSLRLSCAASGFTFRSYDMSWVRQAPGKGLEWVSAIAQFQHWTYYADSVKGRFTISRDNSKNTLYLQMNSLRAEDTAVYYCATTHGIGTLGFGSWGQGTLVTVSS VL: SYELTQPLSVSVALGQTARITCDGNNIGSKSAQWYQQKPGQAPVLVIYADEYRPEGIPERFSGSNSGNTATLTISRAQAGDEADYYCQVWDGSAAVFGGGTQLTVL
true (1)

Threshold query (pKd >= 7) on g7B07_N53A (human Fab) (Fab, V domains shown, VH assembled by inference as for g7B07; Human Fab backbone; also called g7B07_N53A (mean)) VH: EVQLLESGGGLVQPGGSLRLSCAASGFTFRSYDMSWVRQAPGKGLEWVSAIKAGGGITYYADSVKGRFTISRDNSKNTLYLQMNSLRAEDTAVYYCATTHGIGTLGFGSWGQGTLVTVSS VL: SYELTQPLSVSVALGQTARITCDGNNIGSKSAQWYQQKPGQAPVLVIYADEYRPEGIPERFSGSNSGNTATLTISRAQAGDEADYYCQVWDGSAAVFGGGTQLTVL
false (0)

Threshold query (pKd >= 7) on g24F02_N53A (human Fab) (Fab, V domains shown, Human Fab backbone: human CH1 and human lambda constant domain (pUPEX vectors); also called g24F02_N53A_2W) VH: EVQLLESGGGLVQPGGSLRLSCAASGFTFSSYAMSWVRQAPGKGLEWVSAINAGGGSTSYADSVKGRFTISRDNSKNTLYLQMNSLRAEDTAVYYCAKGLRVGVLGFDYWGQGTLVTVSS VL: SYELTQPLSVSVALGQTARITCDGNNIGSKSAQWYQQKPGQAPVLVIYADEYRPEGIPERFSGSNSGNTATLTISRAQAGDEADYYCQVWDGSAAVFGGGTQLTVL
true (1)
